Assay: E. coli acrAB mutant growth effects, primary screen, E. coli filamentation inducers, strain DRC39, OD650, 24 h (AID 1178);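 also: growth measured as culture turbidity by optical density at 650 nm; test concentration not given here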
Conditions: higher = more signal, called active from +8 up or from −8 down
Label TRUE when z-score is at or above -0.3; otherwise label FALSE.

IN: Check if z-score >= -0.3 (inclusive). Item: `COc1ccc(C(=O)Nc2ccc(CN3C(=O)[C@@]4(O[C@@H](CC(=O)N5CCC[C@H]5CO)[C@H]([Si](C)(C)c5ccc(OC)cc5)[C@H]4C)c4ccccc43)cc2)cc1`
OUT: TRUE

IN: Quick check, z-score >= -0.3? CCN(CC)c1ccc(N2CC=CC34O[C@@H]5/C=C\CCCOC(=O)C5[C@H]3C(=O)N(CCO)[C@@H]4C2=O)cc1 (some centres undefined)
OUT: FALSE

IN: Does z-score meet or surpass -0.3 for `COC(=O)c1c(CC[C@@H](CO)NC(=O)N2CCC[C@H]2Cn2cc(-c3ccccn3)nn2)oc(C(C)=O)c1C(=O)OC` ?
OUT: TRUE

IN: Is it the case that `C=CC[C@]12N=C(c3ccc(OCCCO)cc3)O[C@H]1c1ccccc1N(Cc1ccccc1)C2=O` has z-score reaching or exceeding -0.3?
OUT: TRUE

IN: Does the molecule `COC(=O)[C@@]1(Cc2ccccc2)[C@H]2c3cc(C(=O)N(C)C)n(CCSCCO)c3C[C@H]2CN1C(=O)c1ccccc1` have recorded z-score that is -0.3 or more?
OUT: FALSE

***
IN: Is reported z-score greater than or equal to -0.3 here: `CN(C)CCCNC(=O)[C@@]1(c2ccc([N+](=O)[O-])cc2)CC(=O)N(C2CCCCC2)[C@@H]1c1ccc(CO)cc1`
OUT: TRUE

IN: Reported z-score at or above -0.3? CC1(C)[C@@H]2CC(C(O)C3C=CC4C(=O)N(c5ccccc5)C(=O)C4N3Nc3ccccc3)=C[C@H]1C2 (some centres undefined)
OUT: FALSE

IN: Does `CCOC(=O)C[C@H]1[C@H](OC(=O)Cc2ccc3c(c2)OCO3)[C@@H](NC(=O)c2ccc(-c3ccccc3)cc2)c2cc(OCCCO)ccc2N1C(=O)c1ccc2ccccc2n1` have a reported z-score of at least -0.3?
OUT: TRUE

* * *

Assay: binders of probe aFGF2 on microarray, primary screen, stem cell growth factor project, biochemical, small-molecule microarray, fluorescence 635/667 (AID 1067);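 also: measures binding of biotinylated aFGF2 protein to printed compounds on slides; z-score merges feature fluorescence and signal-to-noise across triplicate slides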
Settings: higher = more signal
MEASURED ATTRIBUTE: composite z-score
// no unit string in output, number only

Record excerpt, results attached:
IN: // composite z-score lookup, key: CCCCC(O)C1C=CC2C(=O)N(c3ccccc3)C(=O)C2N1Nc1ccccc1F (stereo not drawn)
OUT: 0.256

IN: Which measured composite z-score value corresponds to `C[N+](C)(C)CCCC[C@@H]1NC(=O)[C@@H]2C[C@H](C(=O)NCCCCCN)[C@H](c3cccc(OCCO)c3)N2C1=O` ?
OUT: -0.0253

IN: Request the reported composite z-score associated with `CC(C)(C)C(=O)N[C@@H](c1ccc(Cl)cc1)[C@]1(C)C[C@H]1C1CCCCC1`
OUT: 0.282

IN: Using the record for `COC(=O)[C@@]1(Cc2ccccc2)[C@H]2c3cc(C(=O)N4CCCC4)n(Cc4cccc5ccccc45)c3C[C@H]2CN1C(=O)c1ccccc1` , report its composite z-score.
OUT: 0.705

Next:
IN: Consider the compound shown here: `COc1ccc([Si](C)(C)[C@H]2[C@H](CCO)O[C@@]3(C(=O)N(C)c4c(Br)cc(C)cc43)[C@@H]2C)cc1` What is its recorded composite z-score?
OUT: -0.116

IN: Fill in the blank: the reported composite z-score of COc1ccc(C(O)C2C=CC3C(=O)N(c4ccccc4)C(=O)C3N2Nc2ccccc2F)cc1OCc1ccccc1 (stereo not drawn) is ____.
OUT: 0.5

IN: Could you share which composite z-score value was measured for [N-]=[N+]=NCc1ccccc1C[C@]1(C(=O)NCC(O)CO)N=C(c2ccc(OCCCO)cc2)O[C@H]1c1ccccc1 (stereo partly drawn) ?
OUT: -0.0039

IN: Fill blank: measured composite z-score of the compound `O=C1c2ccccc2[C@](Cc2ccccc2I)(C(=O)NC2CC2)[C@H](c2ccc(CO)cc2)N1Cc1ccccc1` is ____.
OUT: -0.0335

* * *

Test: COS7 lysate on small-molecule microarray, probe aHis, 635 nm (AID 1123);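 also: z-score combines 667nm fluorescence intensity with signal-to-noise per printed compound spot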
Details: COS7 cell lysate, fluorescence, higher = more signal
MEASURED ATTRIBUTE: composite z-score
A bare number is all that is needed in reply.

Worked cases, answers included:
IN: For the compound shown here, `COCCOC(=O)N1C(=O)[C@@]2(c3cc(C#Cc4ccc(OC)cc4)ccc31)[C@H](C(=O)N1CCCCCCC1)[C@H]1C(=O)O[C@H](c3ccccc3)[C@H](c3ccccc3)N1[C@@H]2c1ccc(OCCO)cc1` , give the reported composite z-score.
OUT: 1.49

IN: Entry `COCCCNC(=O)[C@@]1(Cc2ccccc2N=[N+]=[N-])N=C(c2ccc(OCCCO)cc2)O[C@H]1c1ccccc1N=[N+]=[N-]` has what composite z-score?
OUT: 2.76

IN: Item under review: `CN(C)CCCCCCNC(=O)[C@@H]1C[C@@H]2C(=O)N[C@@H](CCCCN)C(=O)N2[C@@H]1c1cccc(OCCO)c1` . Reported composite z-score?
OUT: 2.35

IN: If you can, please state the reported composite z-score value of O=C1OCCC/C=C\[C@H]2OC34C=CCN(Cn5nnc6ccccc65)C(=O)[C@H]3N(CCO)C(=O)[C@@H]4C12 (stereo partly specified) .
OUT: 0.207

IN: // composite z-score lookup, key: `C=CC[C@]1(C(=O)NCCCOC)N=C(c2ccc(OCCCO)cc2)O[C@H]1c1ccccc1N=[N+]=[N-]`
OUT: 3.06

Others:
IN: Any idea what its composite z-score is? The compound is `COCCOC(=O)N1C(=O)[C@@]2(c3ccccc31)[C@H](c1ccccc1OCCO)N1[C@H](c3ccccc3)[C@H](c3ccccc3)OC(=O)[C@H]1[C@@H]2C(=O)Nc1nc2ccccc2s1`
OUT: 1.52

* * *

Assay: small-molecule binders of probe aInhba, primary screen, biochemical, small-molecule microarray, 635/667 nm fluorescence (AID 1148);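 also: score merges 667nm spot fluorescence with signal-to-noise for antibody binding to printed compounds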
Conditions: higher = more signal
MEASURED ATTRIBUTE: composite z-score
API note: the answer field is a bare number with no unit suffix.

IN: I would be grateful if you could share the reported composite z-score for O=C1C2C=CC(C(O)c3ccc(F)cc3)N(Nc3ccccc3F)C2C(=O)N1c1ccccc1 (configuration not stated) .
OUT: 0.254

IN: Suppose we examine the molecule `C[N+](C)(C)CCCCNC(=O)[C@H]1C[C@H]2C(=O)N[C@@H](Cc3ccccc3)C(=O)N2[C@H]1c1ccc(O)cc1` ; what composite z-score value has been reported?
OUT: 0.106

IN: Given the molecule `C[C@@H]1ON(c2cccc(C(=O)OC(C)(C)C)c2)[C@H](c2ccc(Br)cc2)[C@H]1C(=O)N1C(=O)OC[C@H]1Cc1ccccc1` , what is its reported composite z-score?
OUT: 0.134

IN: Tell me the measured composite z-score of `O=C1O[C@H](c2ccccc2)[C@H](c2ccccc2)N2[C@H]1[C@@H](C(=O)O)[C@]1(C(=O)Nc3ccc(C#CCCO)cc31)[C@H]2c1ccc(O)cc1` , please.
OUT: 0.161

Others:
IN: Please report the recorded composite z-score for `COc1ccc(C(=O)Nc2ccc(CN3C(=O)[C@@]4(O[C@@H](CC(=O)N5CCC[C@H]5CO)[C@H]([Si](C)(C)c5ccc(OC)cc5)[C@H]4C)c4ccccc43)cc2)cc1` .
OUT: 0.0074

IN: Look up composite z-score: `CN1C(=O)[C@]2(Cc3ccccc3)N=C(c3ccc(OCCCO)cc3)O[C@@H]2c2ccccc21`
OUT: 0.112

IN: Can you share its composite z-score? I mean this molecule: `C=CCOC(=O)[C@H]1[C@@H]2C(=O)O[C@@H](c3ccccc3)[C@@H](c3ccccc3)N2[C@@H](c2ccc(OCCOC(=O)[C@@H]3C[C@@H]4C(=O)N5CCC[C@H]5C(=O)N4[C@@H]3c3cccc(OCCO)c3)cc2)[C@]12C(=O)Nc1ccccc12`
OUT: 0.325

IN: So what's the measured composite z-score for this one? `C=CC[C@@]1(C(N)=O)N=C(c2ccc(OCCCO)cc2)O[C@@H]1c1ccccc1CN=[N+]=[N-]`
OUT: 0.233

IN: Requested field: composite z-score. Item: `COC(=O)[C@@]1(Cc2ccccc2)[C@H]2c3cc(C(=O)N4CCCC4)n(Cc4cccc5ccccc45)c3C[C@H]2CN1C(=O)c1ccccc1`
OUT: 1.52

IN: Recorded composite z-score of `C=CCOC(=O)[C@@H]1[C@H]2C(=O)O[C@H](c3ccccc3)[C@H](c3ccccc3)N2[C@H](c2ccc(OCCOC(=O)[C@@H]3C[C@@H]4C(=O)N[C@@H](Cc5ccccc5)C(=O)N4[C@@H]3c3ccc(O)cc3)cc2)[C@@]12C(=O)Nc1ccc(I)cc12` , please.
OUT: 0.0154

IN: Would you mind telling me what composite z-score value was observed for `CC(C)(C)OC(=O)CC[C@@]12N=C(c3ccc(OCCCO)cc3)O[C@@H]1c1ccccc1N(CCS(=O)(=O)c1ccccc1)C2=O` ?
OUT: 0.0737
